Data provenance is patent US20220220103A1.

tested.target: CDK4-CYCLIND1 (Homo sapiens, UniProt P11802)
Sequence (P11802 whole entry): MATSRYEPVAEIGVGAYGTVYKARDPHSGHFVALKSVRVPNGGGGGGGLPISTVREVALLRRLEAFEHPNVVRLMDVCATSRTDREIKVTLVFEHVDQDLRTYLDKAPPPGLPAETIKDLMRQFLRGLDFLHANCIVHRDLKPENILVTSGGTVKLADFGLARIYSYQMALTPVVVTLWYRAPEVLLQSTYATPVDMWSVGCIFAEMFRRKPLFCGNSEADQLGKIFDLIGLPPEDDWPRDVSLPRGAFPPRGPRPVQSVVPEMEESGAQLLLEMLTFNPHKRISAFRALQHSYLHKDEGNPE
Sequence (P24385 whole entry partner): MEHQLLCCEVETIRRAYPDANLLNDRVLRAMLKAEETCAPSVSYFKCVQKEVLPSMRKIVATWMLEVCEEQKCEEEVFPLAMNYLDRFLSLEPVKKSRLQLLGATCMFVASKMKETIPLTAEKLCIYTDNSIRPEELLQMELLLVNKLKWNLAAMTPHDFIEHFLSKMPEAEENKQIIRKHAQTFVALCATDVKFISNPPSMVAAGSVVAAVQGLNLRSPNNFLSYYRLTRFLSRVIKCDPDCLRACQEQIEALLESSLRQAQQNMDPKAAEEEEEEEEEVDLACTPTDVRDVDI
procedure.details: Microfluidic LabChip inhibition assay, CDK4-CYCLIND1
Format: biochemical
particulars: Table 3b; ATP 200 μM; second values in parentheses on the line below, not explained; read-out: CDK4 CyclinD1 IC50
pIC50: −log10 of the molar value.
property.measured: pIC50

# count of solved cases: 2
1) CC(=O)NC(=O)c1cc2cnc(Nc3ccc(N4CCN(C)CC4)cn3)nc2n(C2CCCC2)c1=O [Compound B146]; 6.34
2) CC(=O)c1c(C)c2cnc(Nc3ccc(N4CCN(C)CC4)cn3)nc2n(C23CC(C2)C3)c1=O [Compound B93]; 7.32

A = CC(=O)c1c(C)c2cnc(Nc3ccc(N4CCN(C)CC4)cc3)nc2n(C23CC(C2)C3)c1=O [Compound B96]
B = CN(C)C(=O)c1cc2cnc(NC3CCN(S(C)(=O)=O)CC3)nc2n(C2CCCC2)c1=O [Compound B153]
C = CS(=O)(=O)N1CCC(Nc2ncc3cc(C#N)c(=O)n(C4CCCC4)c3n2)CC1 [Compound B152]
## Task Please list these in order of increasing pIC50. Thank you! Returns: the labels arranged in the requested order.
## Result B, A, C
(B: 7.67, A: 8.12, C: 8.48)

* * *

tested.target: CDK6-CYCLIND3 (Homo sapiens, UniProt Q00534)
Sequence (Q00534 whole entry): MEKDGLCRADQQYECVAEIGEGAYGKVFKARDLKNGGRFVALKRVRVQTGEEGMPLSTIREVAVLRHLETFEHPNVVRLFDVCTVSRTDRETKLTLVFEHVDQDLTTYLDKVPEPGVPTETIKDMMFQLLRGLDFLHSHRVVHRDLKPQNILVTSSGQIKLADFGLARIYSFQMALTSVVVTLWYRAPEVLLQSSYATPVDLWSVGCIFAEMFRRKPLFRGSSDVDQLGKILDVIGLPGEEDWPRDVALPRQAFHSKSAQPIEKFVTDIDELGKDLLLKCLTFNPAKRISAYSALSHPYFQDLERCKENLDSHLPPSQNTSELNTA
Sequence (P30281 whole entry partner): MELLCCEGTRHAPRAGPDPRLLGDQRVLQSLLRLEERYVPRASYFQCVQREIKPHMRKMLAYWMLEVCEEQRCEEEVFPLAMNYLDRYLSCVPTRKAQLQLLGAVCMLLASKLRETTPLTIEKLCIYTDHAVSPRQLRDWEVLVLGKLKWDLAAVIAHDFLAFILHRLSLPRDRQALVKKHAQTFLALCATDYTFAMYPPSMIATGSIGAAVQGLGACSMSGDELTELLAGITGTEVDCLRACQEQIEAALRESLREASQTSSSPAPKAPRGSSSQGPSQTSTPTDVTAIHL
procedure.details: Microfluidic LabChip inhibition assay, CDK6-CYCLIND3
Assay type: biochemical
particulars: Table 2; ATP 300 μM, 25° C.; read-out: CDK6 IC50
pIC50: −log10 of the molar value.
property.measured: pIC50

1. CN(C)[C@H]1CCN(c2ccc(Nc3ncc4cc(C#N)c(=O)n(C5CCCC5)c4n3)nc2)C1; 7.21
2. CN(C)[C@H]1CCN(C(=O)c2ccc(Nc3ncc4cc(C#N)c(=O)n(C5CCCC5)c4n3)cc2F)C1; 7.14
3. N#Cc1cc2cnc(Nc3ccc(C4=CCNCC4)cn3)nc2n(C2CCCC2)c1=O; 7.43
4. CC(C)N1CCN(c2ccc(Nc3ncc4cc(C#N)c(=O)n(C5CCCC5)c4n3)nc2)CC1; 7.72
5. CN(C)CCOc1ccc(Nc2ncc3cc(C#N)c(=O)n(C4CCCC4)c3n2)cn1; 6.88
6. N#Cc1cc2cnc(Nc3ccc(OCCN4CCCC4)nc3)nc2n(C2CCCC2)c1=O; 6.92

A = N#Cc1cc2cnc(Nc3ccc(N4CC5(CNC5)C4)cn3)nc2n(C2CCCC2)c1=O
B = CN(C)CCOc1ccc(Nc2ncc3cc(C#N)c(=O)n(C4CCCC4)c3n2)nc1
C = CN(C)[C@H]1CCN(c2ccc(Nc3ncc4cc(C#N)c(=O)n(C5CCCC5)c4n3)cc2)C1
## Task Please list these in order of increasing pIC50. Thank you! Returns: the labels arranged in the requested order.
## Result B, A, C
(B: 6.92, A: 7.48, C: 8.22)

A = CN(C)[C@H]1CCN(c2ccc(Nc3ncc4cc(C#N)c(=O)n(C5CCCC5)c4n3)cn2)C1
B = N#Cc1cc2cnc(Nc3ccc(N4CC5(CNC5)C4)nc3)nc2n(C2CCCC2)c1=O
C = N#Cc1cc2cnc(Nc3ccc(N4CCN5CCC4CC5)cn3)nc2n(C2CCCC2)c1=O
## Task Please list these in order of increasing pIC50. Thank you! Returns: the labels arranged in the requested order.
## Result C, A, B

a = CN(C)[C@H]1CCN(C(=O)c2ccc(Nc3ncc4cc(C#N)c(=O)n(C5CCCC5)c4n3)cc2)C1
b = CC(C)N1CCN(c2ccc(Nc3ncc4cc(C#N)c(=O)n(C56CC(C5)C6)c4n3)nc2)CC1
## Task Exercise: compare a and b ; which one has the greater pIC50? Select an item and report its label.
## Result a
